Tested on: UACC-62 melanoma
Test Name: NCI tumour cell line growth inhibition, 48 h
Endpoint: TGI

COC(=O)[C@@H]1CCCN1CCN1CCC[C@H]1C(=O)OC :: > 100 µM
N=C(N)c1ccc(N=Nc2c(O)ccc3c2[nH]c2ccccc23)cc1 :: > 100 µM
NC(=O)NNC(=O)c1nc[nH]c1[N+](=O)[O-] :: > 100 µM
Cc1cn(C2CC(n3cc(Cn4cc(Br)c(=O)[nH]c4=O)nn3)C(CO)O2)c(=O)[nH]c1=O (stereo not drawn) :: > 100 µM
C[n+]1cc(C(O)c2ccc3c(c2)OCO3)c2ccccc2c1 (stereo not drawn) :: > 100 µM
COc1cc2ccc3c4cc(OC)c(OC(C)C)cc4cnc3c2cc1OC :: > 100 µM
Cc1[nH]c(=O)[nH]c(=O)c1/C=C/C(=O)O :: > 1000 µM
CCC1(C(=O)OC(C)(C)C)OC12C(C)CCCC2C (stereo not drawn) :: > 100 µM
COc1ccc(/C(Cl)=C(\C=O)c2ccc(F)cc2)cc1OC :: 61.6 µM
O=C(NCCCCCCNCc1cccc2ccccc12)Nc1cccc2ccccc12 :: > 100 µM
C[C@H](N)C(=O)Nc1ccc(-c2nc3ccccc3s2)cc1 :: 35.4 µM
COc1cccc(/C(COc2ccc3c(c2)oc(=O)c2cc(OC)ccc23)=N/O)c1 :: > 100 µM
C[C@]12CCc3nc(Nc4ccccc4)sc3C1=CC[C@@H]1[C@@H]2CC[C@]2(C)/C(=N/NC(N)=S)CC[C@@H]12 :: > 100 µM
COC(=O)OCC1OC(N2C(=O)NC(=O)C(Br)C2N=[N+]=[N-])CC1OC(=O)OC (stereo not drawn) :: > 100 µM
CCc1ccccc1NC(=O)c1sc2nc3c(cc2c1N)C(=O)CCC3 :: > 100 µM
COc1ccc2[nH]c3c4c(ccc3c2c1)C(=O)C=CC4=O :: 36 µM
Nc1ccn(C2(CO)C=C(CO)C(O)C2O)c(=O)n1 (stereo not drawn) :: > 25.8 µM
CC(=O)N1N=C(c2ccc3ccccc3c2O)CC1C(=O)c1ccco1 (stereo not drawn) :: 62.6 µM
CCOc1ccc(-c2nc(-c3oc4ccccc4c(=O)c3OC(C)=O)cs2)cc1 :: > 10 µM
CCCCCCCCCCCCCCCCCC(=O)O[C@H](COC(=O)CCCCCCCCCCC)COC(=O)CCCCCCCCCCCCCCC :: > 100 µM
O=C1c2ccccc2-c2nc(-c3cccc([N+](=O)[O-])c3)nnc21 :: 32 µM
O=C(OCC1OC2OC(c3ccccc3)(n3ccc4c([N+](=O)[O-])ccnc43)OC2C1OC(=O)c1ccccc1)c1ccccc1 (stereo not drawn) :: > 100 µM
Cc1cc(C2(O)C=C(C(C)(C)C)C(=O)C(C(C)(C)C)=C2)c(C)cc1C1(O)C=C(C(C)(C)C)C(=O)C(C(C)(C)C)=C1 :: > 100 µM

// provenance: PubChem BioAssay (NCI)
